Data provenance: patent US20260297085A1

Target: human TYK2 kinase domain (JH1) (Homo sapiens, UniProt P29597)
Construct: recombinantly generated catalytic kinase (also known as JH1) domain of human JAK1, JAK2, JAK3 and TYK2
Sequence (P29597 897-1176 limits assumed): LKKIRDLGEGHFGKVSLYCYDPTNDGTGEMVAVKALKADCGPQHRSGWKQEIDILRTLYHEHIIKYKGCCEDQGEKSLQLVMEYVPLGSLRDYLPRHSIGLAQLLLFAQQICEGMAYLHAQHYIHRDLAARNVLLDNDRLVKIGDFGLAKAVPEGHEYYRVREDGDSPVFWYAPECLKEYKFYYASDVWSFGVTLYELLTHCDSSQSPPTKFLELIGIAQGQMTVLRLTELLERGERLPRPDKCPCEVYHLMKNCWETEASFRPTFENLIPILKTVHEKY
Assay Method Text: JH1 biochemical assay for TYK2 (ADP-Glo kinase assay, recombinant JH1 catalytic domain, JAK3-974 peptide, 10 μM ATP)
Assay Conditions: JH1 kinase domain, ADP-Glo
Structures can show the parent of a compound that is named as a salt.
The following compounds are listed with their measured IC50 values.

Observe how each entry below is paired with its result.
C[C@@H]1CN(c2ccnn3cc(-c4cccc5cnn(C)c45)cc23)C(=O)[C@]1(C#N)C1CC1 [Example 78] :: > 100 nM
C[C@@H]1CN(c2ccnn3cc(-c4ccc(C(=O)N(C)C)cn4)cc23)C(=O)[C@]1(C#N)C1CC1 [Example 124, trifluoroacetate] :: 5 to 20 nM
C[C@@H]1CN(c2nc(-c3cnn(C(F)F)c3)cn3nccc23)C(=O)[C@]1(C#N)C1CC1 [Example 185] :: < 5 nM
C[C@@H]1CN(c2nc(-c3cnc4c(c3)CCC(=O)N4)cn3nccc23)C(=O)[C@]1(C#N)C1CC1 [Example 204] :: < 5 nM
C[C@@H]1CN(c2nc(-c3cnn(C)c3)cn3nccc23)C(=O)[C@]1(C#N)C1CC1 [Example 184] :: < 5 nM
Cn1cc(-c2cc3c(N4CC[C@@](C#N)(C5COC5)C4=O)ccnn3c2)cn1 (single isomer, unassigned) [Example 45] :: > 100 nM

// moving on: another record for IC50
QUERY: Name the reported IC50 value associated with the compound C[C@@H]1CN(c2ccnn3cc(-c4cnc5n4CCCC5)cc23)C(=O)[C@]1(C#N)C1CC1 [Example 100, trifluoroacetate]
RESULT: 50 to 100 nM

* * *

The following molecules are listed with their measured IC50 values.
Target: human TYK2 kinase domain (JH1) (Homo sapiens, UniProt P29597)
Construct: recombinantly generated catalytic kinase (also known as JH1) domain of human JAK1, JAK2, JAK3 and TYK2
Assay Method Text: JH1 biochemical assay for TYK2 (ADP-Glo kinase assay, recombinant JH1 catalytic domain, JAK3-974 peptide, 10 μM ATP)
Assay Conditions: JH1 kinase domain, ADP-Glo
Where a name gives a salt, the structure may show the parent alone.

Cc1c(-c2cc3c(N4C[C@@H](C)[C@@](C#N)(C5CC5)C4=O)ccnn3c2)cnn1C [Example 166] :: 5 to 20 nM
C[C@@H]1CN(c2ccnn3cc(-c4cc5n(n4)CCO5)cc23)C(=O)[C@]1(C#N)C1CC1 [Example 110, trifluoroacetate] :: 5 to 20 nM
C[C@@H]1CN(c2ccnn3cc(-c4nnc5n4CCCC5)cc23)C(=O)[C@]1(C#N)C1CC1 [Example 105, trifluoroacetate] :: > 100 nM
COC[C@]1(C#N)CCN(c2ccnn3cc(-c4cnn(C)c4)cc23)C1=O (single isomer, unassigned) [Example 41] :: > 100 nM
COc1ncc(-c2cc3c(N4C[C@@H](C)[C@@](C#N)(C5CC5)C4=O)ccnn3c2)cc1C#N [Example 85] :: 20 to 50 nM
COc1ccc(-c2cc3c(N4C[C@@H](C)[C@@](C#N)(C5CC5)C4=O)ccnn3c2)cn1 [Example 48] :: 5 to 20 nM

QUERY: Name the reported IC50 value associated with the molecule CCc1ccc(-c2cc3c(N4C[C@@H](C)[C@@](C#N)(C5CC5)C4=O)ccnn3c2)cn1 [Example 174, trifluoroacetate]
RESULT: 5 to 20 nM

QUERY: Name the reported IC50 value associated with the molecule CC[C@@H]1C[C@@](C#N)(C2CC2)C(=O)N1c1ccnn2cc(-c3cnn(C)c3)cc12 [Example 18]
RESULT: > 100 nM

* * *

The following molecules are listed with their measured IC50 values.
Target: JAK1 kinase activity on STAT3 in TF1 cells (Homo sapiens)
Sequence (P23458 whole entry): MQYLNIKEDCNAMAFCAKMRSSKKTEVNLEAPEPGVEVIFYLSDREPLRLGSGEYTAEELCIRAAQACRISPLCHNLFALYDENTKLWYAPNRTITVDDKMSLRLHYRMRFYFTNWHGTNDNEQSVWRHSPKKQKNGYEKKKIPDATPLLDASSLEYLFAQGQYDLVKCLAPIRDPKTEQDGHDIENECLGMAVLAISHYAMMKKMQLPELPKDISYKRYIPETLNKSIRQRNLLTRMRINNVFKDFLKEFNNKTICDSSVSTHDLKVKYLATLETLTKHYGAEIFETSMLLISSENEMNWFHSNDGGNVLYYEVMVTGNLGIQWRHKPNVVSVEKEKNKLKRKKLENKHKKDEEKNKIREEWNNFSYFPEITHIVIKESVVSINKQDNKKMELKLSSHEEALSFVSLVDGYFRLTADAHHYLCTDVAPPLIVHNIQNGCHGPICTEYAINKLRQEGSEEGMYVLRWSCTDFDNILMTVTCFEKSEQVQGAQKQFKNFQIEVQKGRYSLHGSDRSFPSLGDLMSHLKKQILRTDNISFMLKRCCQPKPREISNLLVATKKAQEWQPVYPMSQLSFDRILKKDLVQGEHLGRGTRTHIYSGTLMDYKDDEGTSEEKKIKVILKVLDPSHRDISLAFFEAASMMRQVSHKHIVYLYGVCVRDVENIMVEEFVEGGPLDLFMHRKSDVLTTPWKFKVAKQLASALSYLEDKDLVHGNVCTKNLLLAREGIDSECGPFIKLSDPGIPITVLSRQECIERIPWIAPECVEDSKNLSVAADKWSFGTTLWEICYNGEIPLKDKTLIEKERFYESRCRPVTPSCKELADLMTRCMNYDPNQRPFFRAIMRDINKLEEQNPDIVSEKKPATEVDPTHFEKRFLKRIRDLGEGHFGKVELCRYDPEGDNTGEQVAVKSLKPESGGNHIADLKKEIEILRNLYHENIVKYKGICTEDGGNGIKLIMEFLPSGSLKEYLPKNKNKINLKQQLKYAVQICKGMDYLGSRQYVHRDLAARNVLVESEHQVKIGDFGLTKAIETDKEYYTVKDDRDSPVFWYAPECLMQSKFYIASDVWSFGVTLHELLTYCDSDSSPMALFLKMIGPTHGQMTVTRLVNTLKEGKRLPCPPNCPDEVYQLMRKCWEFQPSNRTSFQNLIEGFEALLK
Assay Method Text: pSTAT3 cell assay (MSD; TF1 cells, 30 ng/mL IL-6 stimulation)
Assay Conditions: 30 ng/mL IL-6, 15 minutes
Structures can show the parent of a compound that is named as a salt.

Observe how each entry below is paired with its result.
C[C@@H]1CN(c2ncnn3cc(-c4cnn(C)c4)cc23)C(=O)[C@]1(C#N)C1CC1 :: 1 to 5 µM
C[C@@H]1CN(c2ccnn3cc(-c4cc5ccccn5n4)cc23)C(=O)[C@]1(C#N)C1CC1 [Example 104, trifluoroacetate] :: 1 to 5 µM

QUERY: Hello, I am looking for reported IC50 with JAK1 kinase activity on STAT3 in TF1 cells (Homo sapiens) for C[C@@H]1CN(c2ccnn3cc(-c4ccc(C#N)nc4)cc23)C(=O)[C@]1(C#N)C1CC1 [Example 86, trifluoroacetate] . Could you help?
RESULT: 5 to 10 µM

QUERY: Hello, I am looking for reported IC50 with JAK1 kinase activity on STAT3 in TF1 cells (Homo sapiens) for CNC(=O)c1ccc(-c2cc3c(N4C[C@@H](C)[C@@](C#N)(C5CC5)C4=O)ccnn3c2)cn1 . Could you help?
RESULT: 1 to 5 µM

* * *

Target: human JAK2 kinase domain (JH1) (Homo sapiens)
Construct: recombinantly generated catalytic kinase (also known as JH1) domain of human JAK1, JAK2, JAK3 and TYK2
Sequence (O60674 849-1124 limits assumed): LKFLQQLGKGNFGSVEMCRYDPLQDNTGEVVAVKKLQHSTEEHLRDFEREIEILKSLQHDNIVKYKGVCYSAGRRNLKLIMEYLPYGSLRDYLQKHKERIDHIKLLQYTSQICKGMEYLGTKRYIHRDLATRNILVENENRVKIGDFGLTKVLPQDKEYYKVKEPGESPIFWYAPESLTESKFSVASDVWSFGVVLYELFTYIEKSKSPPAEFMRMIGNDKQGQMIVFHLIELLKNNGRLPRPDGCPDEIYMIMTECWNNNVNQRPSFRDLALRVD
Assay Method Text: JH1 biochemical assay for JAK2 (ADP-Glo kinase assay, recombinant JH1 catalytic domain, JAK3-974 peptide, 15 μM ATP)
Assay Conditions: JH1 kinase domain, ADP-Glo
Counter-ions that a name gives are not always drawn.
Measure: IC50

C[C@@H]1CN(c2ccnn3cc(-c4ncn(C)n4)cc23)C(=O)[C@]1(C#N)C1CC1 [Example 115, trifluoroacetate] :: > 10000 nM
CC(O)c1ccc(-c2cc3c(N4C[C@@H](C)[C@@](C#N)(C5CC5)C4=O)ccnn3c2)nc1 (stereo partly shown) [Example 130, trifluoroacetate] :: 100 to 1000 nM
C[C@@H]1CN(c2nc(-c3ccc(C#N)nc3)cn3nccc23)C(=O)[C@]1(C#N)C1CC1 :: 100 to 1000 nM
C[C@H]1CN(c2ccnn3cc(-c4cnn(C)c4)cc23)C(=O)[C@@]1(C#N)C1CC1 :: > 10000 nM
COc1cc(-c2cc3c(N4CC[C@](C#N)(C5CC5)C4=O)ccnc3[nH]2)ccn1 :: 100 to 1000 nM
C[C@@H]1CN(c2ccnn3cc(-c4nccc(O)c4C#N)cc23)C(=O)[C@]1(C#N)C1CC1 [Example 129, trifluoroacetate] :: > 10000 nM

// moving on: another record for IC50
QUERY: Name the reported IC50 value associated with the compound C[C@@H]1CN(c2ncnc3[nH]c(-c4cnn(C)c4)cc23)C(=O)[C@]1(C#N)C1CC1
RESULT: 1000 to 5000 nM

* * *

The following compounds are listed with their measured pIC50 values.
Target: human JAK1 kinase domain (JH1) (Homo sapiens, UniProt P23458)
Construct: recombinantly generated catalytic kinase (also known as JH1) domain of human JAK1, JAK2, JAK3 and TYK2
Sequence (P23458 875-1153 limits assumed): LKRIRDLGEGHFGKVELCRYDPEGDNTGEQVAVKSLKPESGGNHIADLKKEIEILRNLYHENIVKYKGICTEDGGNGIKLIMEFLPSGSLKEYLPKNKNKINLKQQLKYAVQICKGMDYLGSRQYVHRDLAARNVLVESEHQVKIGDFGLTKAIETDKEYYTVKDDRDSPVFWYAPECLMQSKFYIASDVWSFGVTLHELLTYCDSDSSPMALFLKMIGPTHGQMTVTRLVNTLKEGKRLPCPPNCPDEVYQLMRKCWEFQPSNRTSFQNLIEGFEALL
Assay Method Text: JH1 biochemical assay for JAK1 (ADP-Glo kinase assay, recombinant JH1 catalytic domain, JAK3-342 peptide, 35 μM ATP)
Assay Conditions: JAK1 JH1, ADP-Glo
pIC50: −log10 of the molar value. Counter-ions that a name gives are not always drawn.

Observe how each entry below is paired with its result.
C[C@@H]1CN(c2ccnn3cc(-c4cnn(C5(CO)CC5)c4)cc23)C(=O)[C@]1(C#N)C1CC1 [Example 322] :: 6.00 to 7.00
Cc1ccn(-c2cc3c(N4C[C@@H](C)[C@@](C#N)(C5CC5)C4=O)ccnn3c2)n1 [Example 334] :: 5.30 to 6.00
C[C@@H]1CN(c2nc(-c3cnn([C@H]4C[C@@](C)(O)C4)c3)cn3ncc(F)c23)C(=O)[C@]1(C#N)C1CC1 [Example 301] :: > 7.00
C[C@@H]1CN(c2ccnn3cc(-n4ccnc4)cc23)C(=O)[C@]1(C#N)C1CC1 [Example 336] :: 6.00 to 7.00
C[C@@H]1CN(c2nc(-c3cnn(C4COC4)c3)cn3ncc(F)c23)C(=O)[C@]1(C#N)C1CC1 [Example 291] :: > 7.00
COc1cncc(-c2cn3nccc3c(N3C[C@@H](C)[C@@](C#N)(C4CC4)C3=O)n2)c1 [Example 244, trifluoroacetate] :: 6.00 to 7.00
C[C@@H]1CN(c2nc(-c3cnn(C)c3)cc3nccn23)C(=O)[C@]1(C#N)C1CC1 [Example 269] :: 5.30 to 6.00
CC(=O)Nc1cncc(-c2cn3nccc3c(N3C[C@@H](C)[C@@](C#N)(C4CC4)C3=O)n2)c1 [Example 249, trifluoroacetate] :: < 5.00

QUERY: Name the reported pIC50 value associated with the compound C[C@@H]1CN(c2ccnn3cc(-n4cc(C5CN(C)CCO5)cn4)cc23)C(=O)[C@]1(C#N)C1CC1 (some centres unmarked) [Example 317]
RESULT: 5.30 to 6.00

QUERY: Name the reported pIC50 value associated with the compound C[C@@H]1CN(c2nc(-c3cncc(C(F)(F)F)c3)cn3nccc23)C(=O)[C@]1(C#N)C1CC1 [Example 260, trifluoroacetate]
RESULT: 6.00 to 7.00
